Origin of the recorded values: patent US20260374756A1

- MEASURED_ON: hMAGL (Homo sapiens, UniProt Q99685)
- Sequence (Q99685 1-303): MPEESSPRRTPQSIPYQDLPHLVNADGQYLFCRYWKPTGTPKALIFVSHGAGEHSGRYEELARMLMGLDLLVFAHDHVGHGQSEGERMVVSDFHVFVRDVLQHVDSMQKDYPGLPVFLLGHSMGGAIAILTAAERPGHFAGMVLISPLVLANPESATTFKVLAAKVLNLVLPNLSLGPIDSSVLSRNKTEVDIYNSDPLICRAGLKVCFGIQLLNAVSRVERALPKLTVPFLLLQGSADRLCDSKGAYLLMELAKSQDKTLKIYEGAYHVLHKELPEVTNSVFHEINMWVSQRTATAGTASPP
pIC50: −log10 of the molar value.
ASSAY_READOUT: pIC50

// worked examples, pIC50 included
SMILES_REPRESENTATION	pIC50
Cc1cc(C(F)(F)F)nn1CC1CC2(C1)CN(C(=O)N1CC3(CC(n4cnc(C5CC5)n4)C3)C1)C2	8.39
Cn1nc(C(F)(F)F)cc1CN1CC2(C1)CN(C(=O)N1CC3(CC(n4cnc(C(F)(F)F)n4)C3)C1)C2	7.69
O=C(N1CC2(CC(Cc3nc(CC(F)(F)F)n[nH]3)C2)C1)N1CC2(CC(n3cnc(C(F)F)n3)C2)C1	7.16
Cn1ncc(P(C)(C)=O)c1CN1CC2(C1)CN(C(=O)N1CC3(CC(n4cnc(C(F)(F)F)n4)C3)C1)C2	5.86
Cn1c(CN2CC3(C2)CN(C(=O)N2CC4(CC(n5cnc(C6CC6)n5)C4)C2)C3)nnc1C(F)(F)F	7.33
Cn1cnc(CN2CC3(C2)CN(C(=O)N2CC4(CC(n5cnc(C6CC6)n5)C4)C2)C3)c1	5.54
CC(C)(C)c1nnc(CN2CC3(C2)CN(C(=O)N2CC4(CC(n5cnc(C6CC6)n5)C4)C2)C3)s1	8.28
CC(C)(C)n1nccc1CN1CC2(C1)CN(C(=O)N1CC3(CC(n4cnc(C(F)(F)F)n4)C3)C1)C2	6.88
O=C(N1CC2(CC(n3cnc(C4CC4)n3)C2)C1)N1CC2(CN(Cc3nc(C4CC4)ns3)C2)C1	8.27
O=C(N1CC2(CC(n3cnc(C4CC4)n3)C2)C1)N1CC2(CN(Cc3nc(C(F)(F)F)no3)C2)C1	7.92

I. O=C(N1CC2(CC(n3cnc(C4(O)CC4)n3)C2)C1)N1CC2(CN(Cc3nc(C(F)(F)F)cs3)C2)C1
II. Cn1cc(C(F)(F)F)c(CC2CC3(C2)CN(C(=O)N2CC4(CC(n5cnc(C6(O)CC6)n5)C4)C2)C3)n1
Request: Decide: I or II , by lowest recorded pIC50. Label of pick, please.
Result: I

1. O=C(N1CC2(CC(Cc3cc(C4(C(F)(F)F)CC4)[nH]n3)C2)C1)N1CC2(CC(n3cnc(C(F)F)n3)C2)C1
2. Cn1nc(C(F)(F)F)cc1CN1CCC2(CC1)CN(C(=O)N1CC3(CC(c4cc(C5CC5)n[nH]4)C3)C1)C2
Request: Decide: 1 or 2 , by lowest recorded pIC50. Label of pick, please.
Result: 2
(2: 8.19, 1: 9.22)

1. O=C(N1CC2(CC(Cc3cn(CC(F)(F)F)nc3C(F)(F)F)C2)C1)N1CC2(CC(n3cnc(C4(O)CC4)n3)C2)C1
2. O=C(N1CC2(CC(n3cnc(C(F)(F)F)n3)C2)C1)N1CC2(CN(Cc3nccn3C(F)(F)F)C2)C1
Request: Response body: label of entry with the larger pIC50; valid values 1 , 2 . Label of pick, please.
Result: 1
